Values from patent US20120046329A1

measurementTarget: NOD2 (Homo sapiens)
assayDetails: NOD2 NF-κB luciferase reporter assay, HEK293T cells over-expressing NOD2
attributeMeasured: IC50 (µM)
Lab book: enter the figure in µM, no units written.

Sample records with IC50:
{"querySmiles": "Cc1ccc(S(=O)(=O)n2c(N)nc3cc(C(F)(F)F)ccc32)cc1", "IC50 [µM]": 4.7}
{"querySmiles": "Nc1nc2ccccc2n1S(=O)(=O)c1ccc2c(c1)CCC2", "IC50 [µM]": 0.6}
{"querySmiles": "CCOC(=O)c1ccc2nc(N)n(S(=O)(=O)c3ccc(C)cc3)c2c1", "IC50 [µM]": 7.6}

Pending compound:
*Q* Supply reported IC50 belonging to this compound: Cc1ccc(S(=O)(=O)n2c(CNC=O)nc3ccccc32)cc1
*A* 15.6

----------
Parameter: IC50. Scope: all listed entries.
measurementTarget: NOD1 (Homo sapiens)
Sequence (Q9Y239 whole entry): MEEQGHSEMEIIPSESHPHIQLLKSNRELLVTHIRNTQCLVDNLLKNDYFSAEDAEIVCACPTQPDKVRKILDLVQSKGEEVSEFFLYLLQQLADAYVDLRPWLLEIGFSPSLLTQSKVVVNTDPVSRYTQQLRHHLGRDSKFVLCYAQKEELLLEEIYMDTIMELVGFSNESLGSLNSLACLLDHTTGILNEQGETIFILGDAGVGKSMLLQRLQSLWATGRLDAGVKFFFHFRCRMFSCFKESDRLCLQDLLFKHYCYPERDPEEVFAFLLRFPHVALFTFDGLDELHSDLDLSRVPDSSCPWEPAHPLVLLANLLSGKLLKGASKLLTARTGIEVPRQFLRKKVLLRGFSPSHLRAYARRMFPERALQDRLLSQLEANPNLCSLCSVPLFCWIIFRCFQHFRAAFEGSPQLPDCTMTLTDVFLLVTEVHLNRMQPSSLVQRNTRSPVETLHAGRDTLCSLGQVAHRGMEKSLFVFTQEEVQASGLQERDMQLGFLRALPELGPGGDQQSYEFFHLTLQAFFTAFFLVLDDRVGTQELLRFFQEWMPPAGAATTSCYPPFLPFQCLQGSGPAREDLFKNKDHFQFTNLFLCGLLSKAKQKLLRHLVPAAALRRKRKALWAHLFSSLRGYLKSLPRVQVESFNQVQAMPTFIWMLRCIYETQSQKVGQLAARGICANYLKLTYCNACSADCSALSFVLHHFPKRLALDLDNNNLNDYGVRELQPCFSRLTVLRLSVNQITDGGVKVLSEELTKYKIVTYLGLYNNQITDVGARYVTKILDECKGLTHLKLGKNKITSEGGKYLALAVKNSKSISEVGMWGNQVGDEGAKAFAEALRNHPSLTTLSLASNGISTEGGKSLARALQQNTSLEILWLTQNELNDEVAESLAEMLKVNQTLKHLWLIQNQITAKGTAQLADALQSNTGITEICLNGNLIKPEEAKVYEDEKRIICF
assayDetails: NOD1 NF-κB luciferase reporter assay, γ-tri-DAP-stimulated HEK293T cells
Lab book: enter the figure in µM, no units written.

{"querySmiles": "Nc1nc2ccccc2n1S(=O)(=O)c1ccc2c(c1)CCC2", "measurementTarget": "NOD1 (Homo sapiens)", "resultUnit": "µM", "IC50": 0.8}
{"querySmiles": "Cc1ccc(S(=O)(=O)n2c(N)nc3c(N)cccc32)cc1", "measurementTarget": "NOD1 (Homo sapiens)", "resultUnit": "µM", "IC50": 17.5}

*Q* Supply reported IC50 belonging to this compound: Cc1ccc(S(=O)(=O)n2c(N)nc3cc(C)ccc32)cc1
*A* 9.3

*Q* Supply reported IC50 belonging to this compound: Cc1ccc(S(=O)(=O)n2c(CNC=O)nc3ccccc32)cc1
*A* 10.9

*Q* Supply reported IC50 belonging to this compound: CCCc1cccc(S(=O)(=O)n2c(N)nc3ccccc32)c1
*A* 1.3

----------
measurementTarget: NOD1 (Homo sapiens)
assayDetails: NOD1 NF-κB luciferase reporter assay, γ-tri-DAP-stimulated HEK293T cells
attributeMeasured: pIC50
Here pIC50 is given on a logarithmic scale as minus log10 of the concentration in mol/L.

Sample records with pIC50:
{"querySmiles": "COc1cccc(S(=O)(=O)n2c(N)nc3ccccc32)c1", "pIC50": 4.84}
{"querySmiles": "Cc1ccc(S(=O)(=O)n2c(N)nc3cc(C(F)(F)F)ccc32)cc1", "pIC50": 5.80}
{"querySmiles": "Nc1nc2ccccc2n1S(=O)(=O)c1cccs1", "pIC50": 4.96}
{"querySmiles": "Nc1nc2ccccc2n1S(=O)(=O)c1cccc(C(F)(F)F)c1", "pIC50": 4.91}
{"querySmiles": "Cc1ccc(S(=O)(=O)n2c(NCCCO)nc3ccccc32)cc1", "pIC50": 4.92}

*Q* Supply reported pIC50 belonging to this compound: Cc1ccc(S(=O)(=O)n2c(N)nc3ccc(C(F)(F)F)cc32)cc1
*A* 5.41

*Q* Supply reported pIC50 belonging to this compound: Nc1nc2ccccc2n1S(=O)(=O)c1cc(Cl)c(Cl)s1
*A* 5.66

*Q* Supply reported pIC50 belonging to this compound: Cc1cccc(S(=O)(=O)n2c(N)nc3ccccc32)c1
*A* 5.42

*Q* Supply reported pIC50 belonging to this compound: Nc1nc2ccccc2n1S(=O)(=O)c1ccc(-c2ccccc2)cc1
*A* 5.82

*Q* Supply reported pIC50 belonging to this compound: Cc1ccc(S(=O)(=O)n2c(N)nc3cc(F)ccc32)cc1
*A* 5.74

*Q* Supply reported pIC50 belonging to this compound: COc1ccc2c(c1)nc(N)n2S(=O)(=O)c1ccc(C)cc1
*A* 5.72

*Q* Supply reported pIC50 belonging to this compound: Nc1nc2ccccc2n1S(=O)(=O)c1cccc(Br)c1
*A* 5.46

*Q* Supply reported pIC50 belonging to this compound: CCOC(=O)c1ccc2nc(N)n(S(=O)(=O)c3ccc(C)cc3)c2c1
*A* 5.52

*Q* Supply reported pIC50 belonging to this compound: CC(C)(C)c1cccc(S(=O)(=O)n2c(N)nc3ccccc32)c1
*A* 5.48

*Q* Supply reported pIC50 belonging to this compound: Cc1ccc(S(=O)(=O)n2c(N)nc3ccc(F)cc32)cc1
*A* 5.21

----------
assayDetails: Solubility in aqueous buffer
settings: aqueous buffer, pH 6.2, aqueous buffer
attributeMeasured: Solubility
I'd appreciate it if you wrote the number followed by its unit.

*Q* Supply reported Solubility belonging to this molecule: Cc1ccc(S(=O)(=O)n2c(N)nc3ccccc32)cc1
*A* 1.7 µg/mL

----------
measurementTarget: NOD2 (Homo sapiens, UniProt Q9HC29)
Sequence (Q9HC29 whole entry): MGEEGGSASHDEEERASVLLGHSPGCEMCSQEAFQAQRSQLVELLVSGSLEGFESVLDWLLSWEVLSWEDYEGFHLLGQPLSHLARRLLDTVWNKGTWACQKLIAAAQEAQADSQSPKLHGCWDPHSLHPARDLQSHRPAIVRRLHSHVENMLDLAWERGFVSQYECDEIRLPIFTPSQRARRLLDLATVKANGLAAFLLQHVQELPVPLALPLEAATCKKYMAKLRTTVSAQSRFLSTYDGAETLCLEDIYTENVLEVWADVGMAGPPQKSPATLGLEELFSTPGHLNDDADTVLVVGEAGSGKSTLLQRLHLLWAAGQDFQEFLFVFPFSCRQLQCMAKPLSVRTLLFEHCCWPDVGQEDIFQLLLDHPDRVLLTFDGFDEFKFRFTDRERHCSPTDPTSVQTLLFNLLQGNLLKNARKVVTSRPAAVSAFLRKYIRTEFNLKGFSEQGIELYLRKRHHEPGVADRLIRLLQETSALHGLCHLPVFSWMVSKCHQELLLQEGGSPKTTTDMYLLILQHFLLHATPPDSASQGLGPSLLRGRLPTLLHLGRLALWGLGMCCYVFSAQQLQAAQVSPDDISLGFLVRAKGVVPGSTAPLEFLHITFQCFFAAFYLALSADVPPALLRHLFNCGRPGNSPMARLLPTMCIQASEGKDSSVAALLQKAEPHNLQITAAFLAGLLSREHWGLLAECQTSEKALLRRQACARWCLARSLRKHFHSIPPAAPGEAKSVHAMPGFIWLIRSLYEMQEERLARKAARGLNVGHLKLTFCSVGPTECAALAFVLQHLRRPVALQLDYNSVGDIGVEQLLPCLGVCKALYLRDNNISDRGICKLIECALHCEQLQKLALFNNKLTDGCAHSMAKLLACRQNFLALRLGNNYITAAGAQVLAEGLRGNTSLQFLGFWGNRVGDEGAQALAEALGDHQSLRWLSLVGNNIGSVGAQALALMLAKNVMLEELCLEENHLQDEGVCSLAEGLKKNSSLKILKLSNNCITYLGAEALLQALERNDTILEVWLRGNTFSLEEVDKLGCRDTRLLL
assayDetails: NOD2 NF-κB luciferase reporter assay, HEK293T cells over-expressing NOD2
Type: cell-based
Parameters: expressed in transfected cells; host or cells: HEK293T NF-κB-luciferase cells, lentiviral transduction, sorted by EGFP
pIC50: −log10 of the molar value.
Parameter: pIC50. Scope: all listed entries.

Sample records with pIC50:
{"querySmiles": "COc1ccc2c(c1)nc(N)n2S(=O)(=O)c1ccc(C)cc1", "pIC50": 5.51}
{"querySmiles": "Cc1ccc(S(=O)(=O)n2c(N)nc3cc(F)ccc32)cc1", "pIC50": "< 4.60"}
{"querySmiles": "Nc1nc2ccccc2n1S(=O)(=O)c1ccc(Cl)c(Cl)c1", "pIC50": "< 4.70"}
{"querySmiles": "Nc1nc2ccccc2n1S(=O)(=O)c1ccc(OC(F)(F)F)cc1", "pIC50": "< 4.70"}
{"querySmiles": "Nc1nc2ccccc2n1S(=O)(=O)c1ccc(F)cc1", "pIC50": "< 4.70"}
{"querySmiles": "Cc1ccc(S(=O)(=O)n2c(N)nc3cc(C)ccc32)cc1", "pIC50": 4.82}

*Q* State pIC50 (NOD2 (Homo sapiens, UniProt Q9HC29)) of Cc1ccc(S(=O)(=O)n2c(N)nc3ccc(C(F)(F)F)cc32)cc1 .
*A* 5.00

*Q* State pIC50 (NOD2 (Homo sapiens, UniProt Q9HC29)) of Cc1ccc(S(=O)(=O)n2c(NCCCO)nc3ccccc32)cc1 .
*A* < 4.60

*Q* State pIC50 (NOD2 (Homo sapiens, UniProt Q9HC29)) of Cc1ccc(S(=O)(=O)n2c(N)nc3ccc(F)cc32)cc1 .
*A* < 4.60

*Q* State pIC50 (NOD2 (Homo sapiens, UniProt Q9HC29)) of Cc1ccc(S(=O)(=O)n2c(N)nc3c(N)cccc32)cc1 .
*A* 4.89

*Q* State pIC50 (NOD2 (Homo sapiens, UniProt Q9HC29)) of CC(C)c1ccc(S(=O)(=O)n2c(N)nc3ccccc32)cc1 .
*A* < 4.70

*Q* State pIC50 (NOD2 (Homo sapiens, UniProt Q9HC29)) of Nc1nc2ccccc2n1S(=O)(=O)c1cccs1 .
*A* < 4.60
